subject-of-test: human M5 receptors (hM5) (Homo sapiens, UniProt P08912)
Construct: expressed in transfected cells
method-notes: Cell-based functional calcium mobilization assay of mAChR M5 activity (inhibition of EC80 acetylcholine response) in CHO cells
experimental-conditions: CHO cells stably expressing hM5; minimum of EC80 acetylcholine response, normalized to maximum acetylcholine response
# EC80 MIN per record follows
Just the number please, in %, no unit attached.

Worked set:
Look up EC80 MIN: CC1(C(=O)Nc2ccc3scnc3c2)CCN(S(=O)(=O)c2ccc3ncsc3c2)CC1
25

Data request, read-out EC80 MIN, for Cc1cc2c(cc1S(=O)(=O)N1CCC(C(=O)Nc3ccc4scnc4c3)CC1)C(C)CO2 (racemic)
3

Value lookup for EC80 MIN; key = C[C@@H]1C[C@H](C(=O)Nc2ccc3scnc3c2)CCN1S(=O)(=O)c1cccc2nsnc12 (racemic)
3

***
Bench note: what EC80 MIN did O=C(Nc1ccc2scnc2c1)[C@@H]1CCN(S(=O)(=O)c2ccc(Cl)nc2)C1 show?
23

Please give the measured EC80 MIN for this molecule: O=C(Nc1cnc2scnc2c1)C1CCN(S(=O)(=O)c2ccc3c(c2)CCO3)CC1
56

So what's the measured EC80 MIN for this one? Cc1noc2ncc(S(=O)(=O)N3CC[C@@H](C(=O)Nc4ccc5scnc5c4)C3)cc12
36

Param item = Cc1nn(C)cc1S(=O)(=O)N1CC[C@@H](C(=O)Nc2ccc3scnc3c2)C[C@H]1C (racemic) ; retrieve measured EC80 MIN.
3

---

Listed compounds paired with reported EC80 MIN
subject-of-test: human M5 receptors (hM5) (Homo sapiens, UniProt P08912)
Construct: expressed in transfected cells
Sequence (P08912 1-532): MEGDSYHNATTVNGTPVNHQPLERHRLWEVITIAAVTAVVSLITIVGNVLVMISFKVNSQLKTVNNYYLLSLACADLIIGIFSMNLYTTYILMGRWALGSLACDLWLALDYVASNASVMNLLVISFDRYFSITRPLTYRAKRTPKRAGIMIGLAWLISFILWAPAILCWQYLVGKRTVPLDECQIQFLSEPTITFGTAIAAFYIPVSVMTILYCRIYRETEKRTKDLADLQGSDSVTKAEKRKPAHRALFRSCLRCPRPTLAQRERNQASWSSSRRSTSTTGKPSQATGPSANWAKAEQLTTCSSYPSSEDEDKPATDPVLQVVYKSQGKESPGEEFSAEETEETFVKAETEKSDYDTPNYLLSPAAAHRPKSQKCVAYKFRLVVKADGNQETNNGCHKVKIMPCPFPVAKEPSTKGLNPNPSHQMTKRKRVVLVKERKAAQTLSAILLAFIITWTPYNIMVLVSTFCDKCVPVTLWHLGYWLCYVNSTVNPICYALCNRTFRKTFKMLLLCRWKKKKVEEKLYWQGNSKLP
method-notes: Cell-based functional calcium mobilization assay of mAChR M5 activity (inhibition of EC80 acetylcholine response) in CHO cells
experimental-conditions: CHO cells stably expressing hM5; minimum of EC80 acetylcholine response, normalized to maximum acetylcholine response
Express your answer in %, writing the number without its unit.

Worked cases, answers included:
// query EC80 MIN value for entry O=C(Nc1ccc2snnc2c1)C1CCN(S(=O)(=O)c2ccc3c(c2)CCO3)CC1
14

# input compound: O=C(Nc1ccc2scnc2c1)[C@@H]1CCN(S(=O)(=O)c2ccc3c(c2)CCO3)C1 ; wanted: its EC80 MIN
2

Bench note: what EC80 MIN did CC1Cc2cc(S(=O)(=O)N3CC[C@@H](C(=O)Nc4ccc5scnc5c4)C3)ccc2O1 (mixture of isomers) show?
3

Could you share which EC80 MIN value was measured for O=C(Nc1ccc2scnc2c1)C1CCN(S(=O)(=O)c2ccccc2Cl)CC1 ?
2

Turning now to a further compound:
Quick check: EC80 MIN of O=C(Nc1ccc2scnc2c1)[C@@H]1CCN(S(=O)(=O)c2ccc(Br)c3c2OCC3)C1 ?
31

---

# EC80 MIN per entry
subject-of-test: human M5 receptors (hM5) (Homo sapiens)
Construct: expressed in transfected cells
Sequence (P08912 1-532): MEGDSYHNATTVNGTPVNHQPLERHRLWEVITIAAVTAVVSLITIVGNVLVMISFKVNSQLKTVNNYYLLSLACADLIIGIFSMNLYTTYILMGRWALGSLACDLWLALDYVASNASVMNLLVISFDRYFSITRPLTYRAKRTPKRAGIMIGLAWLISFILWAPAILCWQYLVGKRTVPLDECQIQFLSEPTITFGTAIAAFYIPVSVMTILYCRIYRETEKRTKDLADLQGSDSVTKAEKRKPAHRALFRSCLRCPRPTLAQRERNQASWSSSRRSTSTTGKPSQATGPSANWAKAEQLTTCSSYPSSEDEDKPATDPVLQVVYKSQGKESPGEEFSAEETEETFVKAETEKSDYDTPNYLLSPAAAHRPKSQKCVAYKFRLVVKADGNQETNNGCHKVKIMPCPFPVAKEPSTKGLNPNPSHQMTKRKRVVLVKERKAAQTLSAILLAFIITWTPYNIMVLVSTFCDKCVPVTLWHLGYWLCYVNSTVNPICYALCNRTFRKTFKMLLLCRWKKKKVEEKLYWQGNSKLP
method-notes: Cell-based functional calcium mobilization assay of mAChR M5 activity (inhibition of EC80 acetylcholine response) in CHO cells
experimental-conditions: CHO cells stably expressing hM5; minimum of EC80 acetylcholine response, normalized to maximum acetylcholine response
Number in %, nothing else.

Consider the compound O=C(Nc1ccc2scnc2c1)[C@@H]1CCN(S(=O)(=O)c2cc3c(cc2F)OCC3)C1 and give its measured EC80 MIN.
2

Quick check: EC80 MIN of [2H]C1([2H])Oc2ccc(S(=O)(=O)N3CCC(C(=O)Nc4ccc5scnc5c4)CC3)cc2C1([2H])[2H] ?
2

Return reported EC80 MIN; argument: O=C(Nc1ccc2scnc2c1)C1CCN(S(=O)(=O)c2cccc(F)c2)CC1
2

Given the compound Cc1nc(C(F)(F)F)c(S(=O)(=O)N2CCC(C(=O)Nc3ccc4scnc4c3)CC2)s1 , what is its reported EC80 MIN?
19

Bench note: what EC80 MIN did Cc1cc(S(=O)(=O)N2CC[C@@H](C(=O)Nc3ccc4scnc4c3)C2)cc2c1OCC2 show?
3

More entries:
Reported EC80 MIN, compound O=C(Nc1ccc2scnc2c1)C1(F)CCN(S(=O)(=O)c2ccc3c(c2)CCO3)CC1 : ____
10

Requested field: EC80 MIN. Item: O=C(Nc1ccc2scnc2c1)C1CCN(S(=O)(=O)c2c(Cl)ccc3nonc23)CC1
60

Look at this compound and give its reported EC80 MIN. CC1(C)COc2ccc(S(=O)(=O)N3CC4CC4(C(=O)Nc4ccc5scnc5c4)C3)cc21 (racemic)
62

---

// reported EC80 MIN per item
subject-of-test: human M5 receptors (hM5) (Homo sapiens, UniProt P08912)
Construct: expressed in transfected cells
method-notes: Cell-based functional calcium mobilization assay of mAChR M5 activity (inhibition of EC80 acetylcholine response) in CHO cells
experimental-conditions: CHO cells stably expressing hM5; minimum of EC80 acetylcholine response, normalized to maximum acetylcholine response
Answer with a number only, understood to be in %.

Below, 6 compounds whose answers are already recorded.
GET /values?readout=EC80 MIN&item= O=C(Nc1ccc2cccnc2c1)C1CCN(S(=O)(=O)c2ccc3c(c2)CCO3)CC1
3

Any idea what its EC80 MIN is? The compound is C[C@@H]1CN(S(=O)(=O)c2ccc3ncsc3c2)CC[C@@H]1C(=O)Nc1ccc2scnc2c1 (racemic)
4

Recorded EC80 MIN of Cc1cc2c(cc1S(=O)(=O)N1CC[C@@H](C(=O)Nc3ccc4scnc4c3)C1)C(C)CO2 (mixture of isomers) , please.
2

Would you mind telling me what EC80 MIN value was observed for Cc1nn(C)cc1S(=O)(=O)N1CC[C@H](C(=O)Nc2ccc3scnc3c2)[C@@H](F)C1 (racemic) ?
3

What does the record list as EC80 MIN for O=C(Nc1ccc2scnc2c1)[C@@H]1CCN(S(=O)(=O)c2cccnc2)C1 ?
27

Any idea what its EC80 MIN is? The compound is N#Cc1cccc(S(=O)(=O)N2CCC(C(=O)Nc3ccc4scnc4c3)CC2)c1
38

---
Which EC80 MIN value is on record for O=C(Nc1ccc2scnc2c1)C1CCN(S(=O)(=O)c2ccc(Cl)s2)CC1 ?
3

---

subject-of-test: human M5 receptors (hM5) (Homo sapiens)
Construct: expressed in transfected cells
Sequence (P08912 1-532): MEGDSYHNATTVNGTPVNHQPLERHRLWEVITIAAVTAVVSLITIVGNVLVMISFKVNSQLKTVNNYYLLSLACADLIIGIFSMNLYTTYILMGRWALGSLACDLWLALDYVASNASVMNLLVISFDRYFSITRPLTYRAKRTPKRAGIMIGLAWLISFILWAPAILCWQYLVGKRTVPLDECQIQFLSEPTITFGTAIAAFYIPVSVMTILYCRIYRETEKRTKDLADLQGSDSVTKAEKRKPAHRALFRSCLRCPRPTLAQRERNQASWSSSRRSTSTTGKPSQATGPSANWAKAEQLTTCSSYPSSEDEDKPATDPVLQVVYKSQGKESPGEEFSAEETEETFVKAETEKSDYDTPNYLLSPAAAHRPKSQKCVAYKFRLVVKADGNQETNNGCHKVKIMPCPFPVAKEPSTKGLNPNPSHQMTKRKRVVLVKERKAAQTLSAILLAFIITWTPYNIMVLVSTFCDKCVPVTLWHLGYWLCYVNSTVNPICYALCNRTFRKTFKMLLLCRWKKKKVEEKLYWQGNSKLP
method-notes: Cell-based functional calcium mobilization assay of mAChR M5 activity (inhibition of EC80 acetylcholine response) in CHO cells
experimental-conditions: CHO cells stably expressing hM5; minimum of EC80 acetylcholine response, normalized to maximum acetylcholine response
result-type: EC80 MIN
Please append the unit to your numeric answer.

Requested field: EC80 MIN. Item: C[C@@H]1CN(S(=O)(=O)c2cccnc2)CC[C@@H]1C(=O)Nc1ccc2scnc2c1 (racemic)
5%

Could you tell me which EC80 MIN is on file for O=C(Nc1ccc2scnc2c1)C1CCN(S(=O)(=O)c2ccc3c(c2)OCCO3)CC1 ?
5%

Consider the compound C[C@@H]1C[C@@H](C(=O)Nc2ccc3scnc3c2)CCN1S(=O)(=O)c1ccc2ncsc2c1 (racemic) and give its measured EC80 MIN.
3%

Could you now look at the following compound, please?
Give the measured EC80 MIN of COc1ccccc1S(=O)(=O)N1CCC(C(=O)Nc2ccc3scnc3c2)CC1 .
24%
